Overview of reported pIC50 across a group of compounds:
target: human HSP90 alpha protein (HSP90 N-terminal protein, amino acids 2-236) (Homo sapiens (Human)); assay: Measurement of HSP90-binding activity (AlphaScreen competitive assay, biotin-labeled geldanamycin); conditions: concentration inhibiting binding of biotin-labeled geldanamycin (40 nM) to purified HSP90 to 50% of control; read-out: HSP-binding activity IC50
As a rule, pIC50 stands for the negative log10 of the concentration, concentration in M.

So for CC(C)c1nn(-c2ccc(C(N)=O)cc2C2CC2)c2nccc(-n3cnc(-c4cccnc4)c3)c12 [Example 138] , the logged pIC50 turned out to be 6.72

Kindly note the recorded pIC50 for CC(C)Nc1cc(-n2nc(C(C)C)c3c(-n4cnc(-c5cccnc5)c4)ccnc32)ccc1C(N)=O [Example 140] , which is 6.12
